Hey, just so you know, these numbers are from paper PMC2709974.

Target: T1, IscR-C92A/C98A/C104A (clusterless) (Escherichia coli, UniProt P0AGK8 1-162, C92A;C98A;C104A)
T1 sequence: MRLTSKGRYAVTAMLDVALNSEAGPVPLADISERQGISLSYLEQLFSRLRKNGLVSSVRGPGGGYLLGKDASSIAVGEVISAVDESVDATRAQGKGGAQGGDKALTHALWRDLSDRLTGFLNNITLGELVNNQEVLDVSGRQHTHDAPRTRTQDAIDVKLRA
Test: competition
pIC50: −log10 of the molar value.
Could you label it rule met if measured pIC50 is 7 or higher, and rule not met otherwise?

Some solved entries appear below for comparison.
INSERT INTO results (binder, class_assignment) VALUES
  ('hya -36(T to G) (dsDNA) DNA 1: ATAAATCCACACAGTTTGTATGGTTTTGTG DNA 2: CACAAAACCATACAAACTGTGTGGATTTAT', 'rule met'),
  ('hyaA competitor (dsDNA) DNA 1: ATAAATCCACACAGTTTGTATTGTTTTGTG DNA 2: CACAAAACAATACAAACTGTGTGGATTTAT', 'rule met'),
  ('hya -36(T to A) (dsDNA) DNA 1: ATAAATCCACACAGTTTGTATAGTTTTGTG DNA 2: CACAAAACTATACAAACTGTGTGGATTTAT', 'rule met'),
  ('Palindrome1 (dsDNA) DNA 1: ATAAATACATACAGTTTGTATGTATTTGTG DNA 2: CACAAATACATACAAACTGTATGTATTTAT', 'rule not met'),
  ('hya -42,-41 (dsDNA) DNA 1: ATAAATCCACACAGTGGGTATTGTTTTGTG DNA 2: CACAAAACAATACCCACTGTGTGGATTTAT', 'rule not met');

State whether the measured pIC50 reaches 7, counting equality as reaching it, for hya -39 (dsDNA) DNA 1: ATAAATCCACACAGTTTGAATTGTTTTGTG DNA 2: CACAAAACAATTCAAACTGTGTGGATTTAT
rule not met

State whether the measured pIC50 reaches 7, counting equality as reaching it, for hya -53,-52 (dsDNA) DNA 1: ATAATCCCACACAGTTTGTATTGTTTTGTG DNA 2: CACAAAACAATACAAACTGTGTGGGATTAT
rule met

State whether the measured pIC50 reaches 7, counting equality as reaching it, for hya -31 (dsDNA) DNA 1: ATAAATCCACACAGTTTGTATTGTTTGGTG DNA 2: CACCAAACAATACAAACTGTGTGGATTTAT
rule not met

State whether the measured pIC50 reaches 7, counting equality as reaching it, for hya -32,-30 (dsDNA) DNA 1: ATAAATCCACACAGTTTGTATTGTTATCTG DNA 2: CAGATAACAATACAAACTGTGTGGATTTAT
rule met

State whether the measured pIC50 reaches 7, counting equality as reaching it, for hya -46 (dsDNA) DNA 1: ATAAATCCACATAGTTTGTATTGTTTTGTG DNA 2: CACAAAACAATACAAACTATGTGGATTTAT
rule met

State whether the measured pIC50 reaches 7, counting equality as reaching it, for hya -34/33 (dsDNA) DNA 1: ATAAATCCACACAGTTTGTATTGAATTGTG DNA 2: CACAATTCAATACAAACTGTGTGGATTTAT
rule met

State whether the measured pIC50 reaches 7, counting equality as reaching it, for hya -44,-42,-41,-40 (dsDNA) DNA 1: ATAAATCCACACATTGGTTATTGTTTTGTG DNA 2: CACAAAACAATAACCAATGTGTGGATTTAT
rule not met

State whether the measured pIC50 reaches 7, counting equality as reaching it, for hya -47 (dsDNA) DNA 1: ATAAATCCACTCAGTTTGTATTGTTTTGTG DNA 2: CACAAAACAATACAAACTGAGTGGATTTAT
rule not met

State whether the measured pIC50 reaches 7, counting equality as reaching it, for hya -50(C to A) (dsDNA) DNA 1: ATAAATCAACACAGTTTGTATTGTTTTGTG DNA 2: CACAAAACAATACAAACTGTGTTGATTTAT
rule not met

State whether the measured pIC50 reaches 7, counting equality as reaching it, for hya -35 (dsDNA) DNA 1: ATAAATCCACACAGTTTGTATTTTTTTGTG DNA 2: CACAAAAAAATACAAACTGTGTGGATTTAT
rule not met

State whether the measured pIC50 reaches 7, counting equality as reaching it, for hya -49 (dsDNA) DNA 1: ATAAATCCTCACAGTTTGTATTGTTTTGTG DNA 2: CACAAAACAATACAAACTGTGAGGATTTAT
rule met
